SYSTEM: furin, P09958;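 also: purified furin at 1:10 enzyme:substrate in 50 mM HEPES pH 7.5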
Sequence (P09958 whole entry): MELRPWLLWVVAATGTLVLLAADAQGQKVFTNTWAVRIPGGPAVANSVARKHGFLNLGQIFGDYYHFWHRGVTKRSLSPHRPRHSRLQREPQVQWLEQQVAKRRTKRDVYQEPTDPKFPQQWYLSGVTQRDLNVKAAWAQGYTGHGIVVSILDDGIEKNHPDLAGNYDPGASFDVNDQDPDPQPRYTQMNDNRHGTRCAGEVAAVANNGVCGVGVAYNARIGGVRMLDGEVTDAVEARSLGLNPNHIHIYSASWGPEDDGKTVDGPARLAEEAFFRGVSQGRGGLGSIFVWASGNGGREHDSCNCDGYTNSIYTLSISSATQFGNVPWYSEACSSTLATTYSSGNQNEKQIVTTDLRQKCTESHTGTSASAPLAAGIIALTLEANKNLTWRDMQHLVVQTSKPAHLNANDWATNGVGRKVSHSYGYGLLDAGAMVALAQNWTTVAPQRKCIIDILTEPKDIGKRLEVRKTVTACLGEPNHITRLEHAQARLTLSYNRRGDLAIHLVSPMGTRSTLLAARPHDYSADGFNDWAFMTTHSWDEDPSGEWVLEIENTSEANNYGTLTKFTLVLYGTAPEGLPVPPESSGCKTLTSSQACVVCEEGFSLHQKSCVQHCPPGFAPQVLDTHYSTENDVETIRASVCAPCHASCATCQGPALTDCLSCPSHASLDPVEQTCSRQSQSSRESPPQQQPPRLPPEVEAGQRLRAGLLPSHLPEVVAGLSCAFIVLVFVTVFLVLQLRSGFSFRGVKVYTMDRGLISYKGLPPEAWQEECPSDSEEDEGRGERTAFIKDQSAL
ASSAY SUMMARY: furin cleavage Z-score vs untreated control; higher = more cleavage, active = 3.5 or more, inactive = 1 or less, 8 variable residues between constant flanks
TEST CONTEXT: 30 min
The list shows a part of the results. No count for the full screen is at hand.
Parameter call: string, one of 1.0 for active, 0.0 for inactive

Completed entries (count: 5):
CAFTAAVTSPAGNASASA [HC1057] = 0.0
CARPEKSVNKAGNASASA [FS-1759] = 0.0
CARTARAVSPAGNASASA [FS-2611] = 1.0
CASIYPGHITAGNASASA [HC314] = 0.0
CARTARSEEDAGNASASA [FS-3103] = 0.0

With those in mind, consider the next sequence.
Prompt: // return assay outcome for CARFARHVSPAGNASASA [FS-2138]
Completion: 1.0
